Experiment: protein stability index of a GFP-peptide fusion (GPS, HEK-293T) (PSI 1-6); higher = more stable;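 also: 24-mer peptide tiles fused after GFP, lentivirally expressed, FACS-sorted into six equal bins by GFP/DsRed ratio, decoded by Illumina sequencing, PSI is the read-weighted mean bin number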
Conditions: treatment: MLN4924 1 uM, 8 h; c terminus: a fixed tail appended
Tag: yes if measured protein stability index is not below 3, no if it is.

Prompt: Item EEETVTTKHIHITQATETTTTRHK [CLINT1] with protein stability index of 3 or above?
Completion: yes

Prompt: Check if protein stability index >= 3 (inclusive). Item: EQDRIPEVHVPPSSAVSGVKEWFG [MIA2]
Completion: yes

Prompt: Item ATIFALSTMTSSVQIYNLSQNIQE [ATL3] with protein stability index of 3 or above?
Completion: yes

Prompt: Threshold query (protein stability index >= 3) on PPGPKGDQGDEGKEGRPGIPGLPG [SCARA5]
Completion: yes

Continuing:
Prompt: Please indicate if the recorded protein stability index for NDIMAYMFGFFFGRTPLIKLSPKK [CDS2] meets or exceeds 3.
Completion: no

Prompt: Does NCPGQYTFSMPSDSHVSSCSEDWV [CD69] have a reported protein stability index of at least 3?
Completion: yes

Prompt: Item IDEQDSYIQSRADTMQNIESTIVE [STX5] with protein stability index of 3 or above?
Completion: yes

Prompt: Does the sequence TLSNPQMSLEGTEKASWLGEQPQF [ELF3] have recorded protein stability index that is 3 or more?
Completion: yes

Prompt: Does GSTLAMLQRLKEQQFVIAGVLVED [ZBED1] have a reported protein stability index of at least 3?
Completion: no

Prompt: Determine whether this sequence has protein stability index no lower than 3: EPHSLLHLSRLCVRHNLGDTRLGQ [SPSB2]
Completion: yes

Prompt: In plain terms: is recorded protein stability index at least 3 for SPPVMVAGGRVFVLPCIQQIQRIS [FLOT1] ?
Completion: no
